Experiment: Oral bioavailability in rat at 10 mg/kg
Format: ADME, organism-based
Conditions: in vivo
valueType: bioavailability
Kindly write the number and append the unit.

GET /values?readout=bioavailability&item= CS(=O)(=O)CCCn1c(Cn2nc(S(C)(=O)=O)c3ccccc32)nc2cc(Cl)ccc21
1.7%

* * *

Assay: Cmax in ICR mouse at […], po
Assay type: ADME, organism-based
Parameters: dose 8.3 mg/kg, route oral
Details: in vivo
valueType: Cmax (ng/mL)
Answer in ng/mL, number only, no unit symbol.

Would you kindly share the measured Cmax for CS(=O)(=O)c1nn(Cc2nc3cc(Cl)ccc3n2CCC(F)(F)F)c2cnccc12 ?
589

* * *

Assay: Volume of distribution at steady state in rat at 2 mg/kg, iv
Assay type: ADME, organism-based
Conditions: in vivo, read-out: Vdss
valueType: Vd (L/kg)
Expressed in L/kg, but write only the number.

Entry CS(=O)(=O)CCCn1c(Cn2nc(S(C)(=O)=O)c3ccccc32)nc2cc(Cl)ccc21 : reported Vd = ?
2.5

* * *

Assay: Half life in ICR mouse at 25 mg/kg, po
Assay type: ADME, organism-based
Details: in vivo
valueType: half-life (h)
Numbers only here, please. The scale is h.

Reported half-life for CS(=O)(=O)c1nn(Cc2nc3cc(Cl)ccc3n2CCCCO)c2cnccc12 : what is it?
1.81

* * *

Assay: Tmax in ICR mouse at 12.2 mg/kg, po
Assay type: ADME, organism-based
Conditions: in vivo
valueType: Tmax

Name the reported Tmax value associated with the compound CS(=O)(=O)c1nn(Cc2nc3cc(Cl)ccc3n2CC2COC2)c2cnccc12
30 min

* * *

Assay: Cmax in ICR mouse at 10 mg/kg, po
Format: ADME, organism-based
Set-up: dose 10 mg/kg, route oral
Conditions: in vivo
valueType: Cmax (µg/mL)
Report the value in µg/mL with no unit label.

Which Cmax is listed for CC(C)(O)CCCn1c(Cn2nc(S(C)(=O)=O)c3ccncc32)nc2cc(Cl)ccc21 ?
0.34

* * *

Experiment: Cmax in rat at 10 mg/kg, po
Format: ADME, organism-based
Set-up: dose 10 mg/kg, route oral
Conditions: in vivo
valueType: Cmax (ng/mL)
Form entry: value (ng/mL) — number only.

Any idea what its Cmax is? The compound is CS(=O)(=O)CCCn1c(Cn2nc(S(C)(=O)=O)c3ccccc32)nc2cc(Cl)ccc21
22.2

* * *

Test: AUC (0 to 24 hrs) in rat at 2 mg/kg, iv
Format: ADME, organism-based
Design: dose 2 mg/kg, time < 24 hr, route intravenous
Settings: in vivo
valueType: AUC(0-t) at 24 h (ng·h/mL)
Give just the numeric value; ng·h/mL need not be written.

Report AUC(0-t) at 24 h for CS(=O)(=O)CCCn1c(Cn2nc(S(C)(=O)=O)c3ccccc32)nc2cc(Cl)ccc21 please.
2470

* * *

Test: Volume of distribution at steady state in ICR mouse at 2 mg/kg, iv
Format: ADME, organism-based
Settings: in vivo, read-out: Vdss
valueType: Vd (L/kg)
Could you give me the number in L/kg? Just the number is fine.

CC(C)(O)CCn1c(Cn2nc(S(C)(=O)=O)c3ccncc32)nc2cc(Cl)ccc21 = 1.93

Consider the compound CC(C)(O)CCCn1c(Cn2nc(S(C)(=O)=O)c3ccncc32)nc2cc(Cl)ccc21 and give its measured Vd.
1.09

Looking for the measured Vd of CS(=O)(=O)c1nn(Cc2nc3cc(Cl)ccc3n2CCC(F)(F)F)c2cnccc12 , can you help?
1.04

# Vd lookup, item CS(=O)(=O)c1nn(Cc2nc3cc(Cl)ccc3n2CCCO)c2cnccc12
8.3

Please give the measured Vd for this compound: CS(=O)(=O)c1nn(Cc2nc3cc(Cl)ccc3n2CCCCO)c2cnccc12
1.08
